Where these numbers come from: paper PMC11912484

- tested-system: MbtI (Mycobacterium tuberculosis, UniProt P9WFX1)
- Construct: made in house
- Sequence (P9WFX1 whole entry): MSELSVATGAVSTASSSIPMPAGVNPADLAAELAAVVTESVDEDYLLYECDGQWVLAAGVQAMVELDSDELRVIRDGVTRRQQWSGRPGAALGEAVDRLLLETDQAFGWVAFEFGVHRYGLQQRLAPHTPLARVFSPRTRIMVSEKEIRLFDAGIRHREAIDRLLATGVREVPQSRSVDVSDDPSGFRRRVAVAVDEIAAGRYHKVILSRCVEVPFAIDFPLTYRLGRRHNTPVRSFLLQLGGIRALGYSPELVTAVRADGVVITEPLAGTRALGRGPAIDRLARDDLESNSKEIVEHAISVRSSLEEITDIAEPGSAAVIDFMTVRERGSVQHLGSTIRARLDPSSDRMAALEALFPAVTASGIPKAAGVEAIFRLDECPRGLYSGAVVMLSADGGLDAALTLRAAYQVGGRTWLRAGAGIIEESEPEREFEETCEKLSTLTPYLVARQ
- assay-remarks: MbtI fluorimetric enzyme inhibition assay
- Assay type: biochemical
- particulars: recombinant MbtI
# label = true (1) if IC50 < 10 µM else false (0)

compound-structure	class-label
CC(C)COc1cc(C#N)cc(-c2ccc(C(=O)O)o2)c1	false (0)
CCCCOc1cc(C#N)cc(-c2ccc(C(=O)O)o2)c1	true (1)
CCCOc1cc(C#N)cc(-c2ccc(C(=O)O)o2)c1	false (0)
C/C=C/C=C/COc1cc(C#N)cc(-c2ccc(C(=O)O)o2)c1	false (0)

Continue with the compound presented below.
Query block: Please indicate whether the reported IC50 of `CC=CCOc1cc(C#N)cc(-c2ccc(C(=O)O)o2)c1` is strictly below 10 µM.
Result block: true (1)
